B1: CPEB3 Ribozyme (parent)
chain: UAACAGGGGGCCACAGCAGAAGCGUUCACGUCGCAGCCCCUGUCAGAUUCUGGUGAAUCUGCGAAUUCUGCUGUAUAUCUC

- Variants of: B1
- assayProtocol: self-cleavage, relative activity (ratio to wild type); higher = more cleavage; in vitro, sequencing
measurementType: self-cleavage

Problem: Can you look up the measured self-cleavage of A47U C81A for me?
Result: 1.13

Problem: Can you look up the measured self-cleavage of C37U A64G for me?
Result: 0.6

Problem: Can you look up the measured self-cleavage of G33C G36C for me?
Result: 0.15

Problem: Can you look up the measured self-cleavage of C11G A75G for me?
Result: 0.41
